Documented pIC50 across a set of compounds
Biological target: EGFR L858R/T790M (Homo sapiens (Human), UniProt P00533, L858R/T790M)
Sequence (P00533 25-1210 T790M/L858R): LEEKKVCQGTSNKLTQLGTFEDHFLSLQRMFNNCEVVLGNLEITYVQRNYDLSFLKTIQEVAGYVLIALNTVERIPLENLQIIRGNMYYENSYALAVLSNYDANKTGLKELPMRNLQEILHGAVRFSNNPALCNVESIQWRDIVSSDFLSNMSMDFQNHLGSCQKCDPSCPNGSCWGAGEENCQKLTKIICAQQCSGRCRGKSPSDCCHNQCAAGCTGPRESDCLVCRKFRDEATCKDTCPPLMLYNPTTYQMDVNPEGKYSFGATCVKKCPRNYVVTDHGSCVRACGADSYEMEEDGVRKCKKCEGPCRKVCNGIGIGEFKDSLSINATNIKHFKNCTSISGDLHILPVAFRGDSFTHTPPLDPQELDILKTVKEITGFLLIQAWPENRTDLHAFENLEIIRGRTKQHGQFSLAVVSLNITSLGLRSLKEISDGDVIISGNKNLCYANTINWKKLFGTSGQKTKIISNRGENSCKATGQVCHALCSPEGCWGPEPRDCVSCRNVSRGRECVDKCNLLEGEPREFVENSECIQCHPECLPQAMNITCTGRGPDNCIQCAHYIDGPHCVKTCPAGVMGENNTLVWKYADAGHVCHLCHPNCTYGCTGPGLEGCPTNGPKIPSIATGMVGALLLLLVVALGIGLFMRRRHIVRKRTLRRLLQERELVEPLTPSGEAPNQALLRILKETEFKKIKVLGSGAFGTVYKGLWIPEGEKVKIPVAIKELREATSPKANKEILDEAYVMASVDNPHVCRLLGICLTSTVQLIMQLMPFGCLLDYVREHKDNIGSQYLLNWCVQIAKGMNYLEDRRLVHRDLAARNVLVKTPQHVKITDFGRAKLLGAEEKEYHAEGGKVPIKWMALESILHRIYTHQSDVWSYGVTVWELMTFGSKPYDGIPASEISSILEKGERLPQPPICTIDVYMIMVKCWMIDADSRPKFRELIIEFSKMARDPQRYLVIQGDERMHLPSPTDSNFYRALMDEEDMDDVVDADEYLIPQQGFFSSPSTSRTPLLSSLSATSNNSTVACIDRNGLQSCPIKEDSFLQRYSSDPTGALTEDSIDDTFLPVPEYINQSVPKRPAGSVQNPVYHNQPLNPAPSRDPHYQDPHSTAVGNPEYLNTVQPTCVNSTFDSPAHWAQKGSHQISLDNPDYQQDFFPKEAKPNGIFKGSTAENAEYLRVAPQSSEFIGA
Assay: HTRF-based EGFR biochemical assay, L858R/T790M
Conditions: L858R/T790M 0.02 nM enzyme, 100 μM ATP; read-out: LRTM enzyme IC50
pIC50: −log10 of the molar value.

>  <compound>
CN1CCC(c2ccc(-c3ccc4c(c3F)C(=O)N(C(C(=O)Nc3nccs3)c3ccccc3)CO4)cc2)CC1 (stereo not shown)

>  <pIC50>
9.00

$$$$
>  <compound>
CN1CCC(c2ccc(-c3ccc4c(c3)C(=O)N(C(c3nc5ccccc5[nH]3)c3cc(F)ccc3O)CO4)cc2)CC1 (stereo not shown) [Compound 007, 2,2,2-trifluoroacetate]

>  <pIC50>
9.15

$$$$
>  <compound>
CN1CCC(c2ccc(-c3ccc4c(c3)OCN(C(C(=O)Nc3nccs3)c3ccccc3)C4=O)cc2)CC1 (stereo not shown)

>  <pIC50>
7.68

$$$$
>  <compound>
CN1CCN(c2ccc(-c3ccc4c(c3)C(=O)N(C(C(=O)Nc3nccs3)c3cccc(F)c3)CO4)cc2)CC1 (stereo not shown)

>  <pIC50>
8.40

$$$$
>  <compound>
CN1CCC(c2ccc(-c3ccc4c(c3)C(=O)N(C(C(=O)Nc3nccs3)c3ccccc3)CO4)cc2)CC1 (stereo not shown)

>  <pIC50>
9.10

$$$$
>  <compound>
CN1CCC(c2ccc(-c3ccc4c(c3)OCN(C(c3nc5ccccc5[nH]3)c3cc(F)ccc3O)C4=O)cc2)CC1 (stereo not shown)

>  <pIC50>
9.05

$$$$
>  <compound>
CN1CCC(c2ccc(-c3ccc4c(c3)C(=O)N(C(C(=O)Nc3nccs3)c3cccc(F)c3)CO4)cc2)CC1 (stereo not shown)

>  <pIC50>
9.40

$$$$

Data origin, for the record: patent US20250388573A1
